Taken from patent US20240059769A1.

tested-system: recombinant human IL-13 (human, UniProt P35225 35-146)
Sequence (P35225 35-146 limits assumed): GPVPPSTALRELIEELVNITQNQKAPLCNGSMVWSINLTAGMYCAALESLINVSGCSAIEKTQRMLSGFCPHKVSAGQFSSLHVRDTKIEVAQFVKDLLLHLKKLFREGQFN
procedure-details: cell-based or functional assay
The reader will find reported HEK-IL-13 [nM] (IC50, STAT6 reporter) values listed item by item below.
Supply the numeric figure in nM, leaving out any unit text.

# binder, metric, value-observed
measured = [
    ("BDG38.084 (antibody, V domains shown) VH: QMQLVESGGGVVQPGRSLRLSCAASGFAFRTYGMHWVRQAPGKGLEWVAVIWDDGSNTHYADSVKGRFTITRDNSKNTLNLQMNSLRAEDTAVYYCVRAPQWYLTAEAFDLWGQGTMVTVSS VL: SYVLTQPPSVSVAPGETATITCGGNLIGAYLVHWYQQKPGQAPVLVVYDDVDRPDRIPERFSGSNSGNTATLTISRVEAGDEADYYCQVWDHSTNTMVFGGGTKLTVL", "HEK-IL-13 [nM] (IC50, STAT6 reporter)", 0.0419),
]

### Prompt Requested read-out: HEK-IL-13 [nM] (IC50, STAT6 reporter). Entry: BDG38.079 (antibody, V domains shown) VH: QMQLVESGGGVVQPGRSLRLSCAASGFAFRTYGMHWVRQAPGKGLEWVAVIWYDGSNTHYADSVKGRFTITRDNSKNTLNLQMNSLRAEDTAVYYCVRAPQWYLTAEAFDLWGQGTMVTVSS VL: SYVLTQPPSVSVAPGETATITCGGNMIGGYLVHWYQQKPGQAPLLVIYDDVDRPDRIPERFSGSNSGNTATLTISRVEAGDEADYYCQVWDHDSNTMVFGGGTKLTVL
### Response 0.0253
